A collection of molecules and their measured mean cell size
Tested on: Saccharomyces cerevisiae BY4741 SeMeCo community
Experiment: mean cell size (pixel area) (pixels); higher = larger cells
Settings: 10 µM; 24 h; SM minimal medium
Where a name gives a salt, the structure may show the parent alone.

molecule	measured_target	mean cell size
NS(=O)(=O)Cc1noc2ccccc12 [Zonisamide]	Saccharomyces cerevisiae BY4741 SeMeCo community	12.4
CC(C)CCCCC(=O)N[C@@H](CCN)C(=O)N[C@H](C(=O)N[C@@H](CCN)C(=O)N[C@H]1CCNC(=O)[C@H]([C@@H](C)O)NC(=O)[C@H](CCN)NC(=O)[C@H](CCN)NC(=O)[C@H](CC(C)C)NC(=O)[C@@H](Cc2ccccc2)NC(=O)[C@H](CCN)NC1=O)[C@@H](C)O [Polymyxin B sulphate]	Saccharomyces cerevisiae BY4741 SeMeCo community	11.1
Cc1cc(O)cc(C)c1Cl [Chloroxylenol]	Saccharomyces cerevisiae BY4741 SeMeCo community	12.7
O=C(c1ccccc1)c1ccc2n1CCC2C(=O)O (configuration not stated) [Ketorolac tromethamine salt]	Saccharomyces cerevisiae BY4741 SeMeCo community	12.3

Inquiry: Requested field: mean cell size. Item: Cc1nc(NC(=O)N2CCC[C@H]2C(N)=O)sc1-c1ccnc(C(C)(C)C(F)(F)F)c1 [Alpelisib (BYL719)]
Reply text: 12.6

Inquiry: Requested field: mean cell size. Item: CN1CCN(CCCN2c3ccccc3Sc3ccc(C(F)(F)F)cc32)CC1 [Trifluoperazine 2HCl]
Reply text: 12.1

Inquiry: Requested field: mean cell size. Item: Cc1cc(-n2c(=O)[nH]c(=O)n(C)c2=O)ccc1Oc1ccc(SC(F)(F)F)cc1 [Toltrazuril]
Reply text: 12.5

---

Test system: Saccharomyces cerevisiae BY4741 SeMeCo community
Test: z-score of subpopulation abundance vs DMSO median, subpopulation auxotrophic for UM; higher = larger share of this subpopulation than in DMSO controls
Details: 10 µM; 24 h; SM minimal medium; subpopulation (auxotrophy): UM
Counter-ions that a name gives are not always drawn.
readout_type: z-score of subpopulation abundance

A selection of reference data follows.
molecule	readout_type	test_value
CN(C)CCC[C@@]1(c2ccc(F)cc2)OCc2cc(C#N)ccc21 [Escitalopram Oxalate]	z-score of subpopulation abundance	-0.53
Clc1ccc(CCC(Cn2ccnc2)Sc2c(Cl)cccc2Cl)cc1 (centres undefined) [Butoconazole nitrate]	z-score of subpopulation abundance	0.67
COc1ccccc1OCC(O)CN1CCN(CC(=O)Nc2c(C)cccc2C)CC1 (centres undefined) [Ranolazine 2HCl]	z-score of subpopulation abundance	-0.16
CC[C@H]1OC(=O)[C@H](C)[C@@H](O[C@H]2C[C@@](C)(OC)[C@@H](O)[C@H](C)O2)[C@H](C)[C@@H](O[C@@H]2O[C@H](C)C[C@H](N(C)C)[C@H]2O)[C@](C)(O)C[C@@H](C)[C@@H]2N[C@@H](COCCOC)O[C@H]([C@H]2C)[C@]1(C)O	z-score of subpopulation abundance	-0.05
CCC(=O)NS(=O)(=O)c1ccc(-c2c(-c3ccccc3)noc2C)cc1	z-score of subpopulation abundance	0.49
Cc1c(Cl)cccc1Nc1ccccc1C(=O)O	z-score of subpopulation abundance	-0.9
COc1c(N2C[C@@H]3CCCN[C@@H]3C2)c(F)cc2c(=O)c(C(=O)O)cn(C3CC3)c12 [Moxifloxacin HCl]	z-score of subpopulation abundance	-0.68
CC(C)c1nc(N(C)S(C)(=O)=O)nc(-c2ccc(F)cc2)c1/C=C/[C@@H](O)C[C@@H](O)CC(=O)O [Rosuvastatin Calcium]	z-score of subpopulation abundance	2.31

Inquiry: Requested field: z-score of subpopulation abundance. Item: C[C@H]1COc2c(N3CCN(C)CC3)c(F)cc3c(=O)c(C(=O)O)cn1c23 [Levofloxacin hydrate]
Reply text: 0.61

Inquiry: Requested field: z-score of subpopulation abundance. Item: COc1cccc(CCc2ccccc2OCC(CN(C)C)OC(=O)CCC(=O)O)c1 (centres undefined) [Sarpogrelate hydrochloride]
Reply text: 0.14

Inquiry: Requested field: z-score of subpopulation abundance. Item: CC[C@H]1OC(=O)[C@H](C)[C@@H](O[C@H]2C[C@@](C)(OC)[C@@H](O)[C@H](C)O2)[C@H](C)[C@@H](O[C@@H]2O[C@H](C)C[C@H](N(C)C)[C@H]2O)[C@](C)(O)C[C@@H](C)CN(C)[C@H](C)[C@@H](O)[C@]1(C)O [Azithromycin Dihydrate]
Reply text: 0.16

Inquiry: Requested field: z-score of subpopulation abundance. Item: OCCOCCN1CCN(C2=Nc3ccccc3Sc3ccccc32)CC1 [Quetiapine Fumarate]
Reply text: 0.49

Inquiry: Requested field: z-score of subpopulation abundance. Item: OC(c1cc(C(F)(F)F)nc2c(C(F)(F)F)cccc12)C1CCCCN1 (centres undefined) [Mefloquine HCl]
Reply text: 0.92

Inquiry: Requested field: z-score of subpopulation abundance. Item: CC1=C(C(=O)O)N2C(=O)[C@@H](NC(=O)[C@H](N)c3ccc(O)cc3)[C@H]2SC1 [Cefadroxil hydrate]
Reply text: -0.45

---

Test system: Saccharomyces cerevisiae BY4741 SeMeCo community
Test: z-score of subpopulation abundance vs DMSO median, subpopulation auxotrophic for UM; higher = larger share of this subpopulation than in DMSO controls
Conditions: 10 µM; 24 h; SM minimal medium; subpopulation (auxotrophy): UM
Structures can show the parent of a compound that is named as a salt.
Threshold rule: z-score of subpopulation abundance greater than or equal to 0.2 is 1; below that, -1.

>>> print(df.to_string())
                                   molecule  group
0     CC(=O)OCC(CCn1cnc2cnc(N)nc21)COC(C)=O     -1
1  C#C[C@]1(O)CC[C@H]2[C@@H]3CCC4=CC(=O)CC[C@@H]4[C@H]3CC[C@@]21CC     -1
2  C[N+]1(C)CCC(=C(c2ccccc2)c2ccccc2)CC1 [Diphemanil Methylsulfate]      1
3  COc1ccc2[nH]c([S+]([O-])Cc3ncc(C)c(OC)c3C)nc2c1 (stereo not drawn) [Omeprazole Sodium]     -1
4  COc1cc(/C=C/C(=O)N2CCN(CC(=O)N3CCCC3)CC2)cc(OC)c1OC [Cinepazide maleate]      1

Inquiry: Determine whether measured z-score of subpopulation abundance meets or exceeds 0.2 for `CCCCCCCCCCCCCCCCCCOP(=O)([O-])OC1CC[N+](C)(C)CC1`
Reply text: 1

Inquiry: Determine whether measured z-score of subpopulation abundance meets or exceeds 0.2 for `O=C(O)Cc1ccccc1Nc1c(Cl)cccc1Cl`
Reply text: -1

Inquiry: Determine whether measured z-score of subpopulation abundance meets or exceeds 0.2 for `C[C@]1(Cn2ccnn2)[C@H](C(=O)O)N2C(=O)C[C@H]2S1(=O)=O`
Reply text: 1

---

System: Saccharomyces cerevisiae BY4741 SeMeCo community
Assay: z-score of subpopulation abundance vs DMSO median, subpopulation auxotrophic for HLM; higher = larger share of this subpopulation than in DMSO controls
Conditions: 10 µM; 24 h; SM minimal medium; subpopulation (auxotrophy): HLM
Counter-ions that a name gives are not always drawn.
readout_type: z-score of subpopulation abundance
Write no unit; give the number alone.

molecule	z-score of subpopulation abundance
CCN(CC)CCOCCOC(=O)C1(c2ccccc2)CCCC1 [Pentoxyverine Citrate]	-0.05

# ---- query molecule ----
Inquiry: Requested field: z-score of subpopulation abundance. Item: Cc1cnc(NC(=O)C2=C(O)c3ccccc3S(=O)(=O)N2C)s1 [Meloxicam]
Reply text: -1.09

---

Test system: Saccharomyces cerevisiae BY4741 SeMeCo community
Assay: z-score of subpopulation abundance vs DMSO median, subpopulation auxotrophic for LM; higher = larger share of this subpopulation than in DMSO controls
Settings: 10 µM; 24 h; SM minimal medium; subpopulation (auxotrophy): LM
Counter-ions that a name gives are not always drawn.
readout_type: z-score of subpopulation abundance
Write no unit; give the number alone.

In [3]: df
Out[3]:
                                   molecule                           measured_target  test_value
0  CN(C)CCn1nnnc1SCC1=C(C(=O)O)N2C(=O)[C@@H](NC(=O)Cc3csc(N)n3)[C@H]2SC1 [Cefotiam hydrochloride]  Saccharomyces cerevisiae BY4741 SeMeCo community        1.06

Inquiry: Requested field: z-score of subpopulation abundance. Item: O=C1Cc2cc(CCN3CCN(c4nsc5ccccc45)CC3)c(Cl)cc2N1 [Ziprasidone HCl]
Reply text: 1.54

Inquiry: Requested field: z-score of subpopulation abundance. Item: CC(C)Cc1ccc(C(C)C(=O)O)cc1 (centres undefined) [Ibuprofen]
Reply text: -0.71

Inquiry: Requested field: z-score of subpopulation abundance. Item: CCCc1cc(C(N)=S)ccn1 [Protionamide]
Reply text: 0.16

Inquiry: Requested field: z-score of subpopulation abundance. Item: O=C(Nc1c(Cl)cncc1Cl)c1ccc(OC(F)F)c(OCC2CC2)c1 [Roflumilast]
Reply text: -0.1

Inquiry: Requested field: z-score of subpopulation abundance. Item: CCN(CC)C(=O)N1CCN(C)CC1 [Diethylcarbamazine citrate]
Reply text: -0.13

Inquiry: Requested field: z-score of subpopulation abundance. Item: CCn1cc(C(=O)O)c(=O)c2cnc(N3CCNCC3)nc21 [Pipemidic acid]
Reply text: 0.15

Inquiry: Requested field: z-score of subpopulation abundance. Item: CCOC(=O)c1c(CSc2ccccc2)n(C)c2cc(Br)c(O)c(CN(C)C)c12 [Arbidol HCl]
Reply text: -0.98

Inquiry: Requested field: z-score of subpopulation abundance. Item: CC(=O)Oc1ccc(C(=C2CCCCC2)c2ccc(OC(C)=O)cc2)cc1 [Cyclofenil]
Reply text: -1.03
